# method: in vitro
# measurement setup: human
measured property: CC50 at 48 h

Note CC50 at 48 h for the compound shown: COc1ccc2nc3cc(Cl)ccc3c(Nc3cc(CN4CCCC4)c(O)c(CN4CCCC4)c3)c2n1 [pyronaridine]
> 100 µM

---

# method: Cytotoxicity (WST-1), Calu-3 cells
# measurement setup: human
measured property: CC50 at 48 h

Note CC50 at 48 h for the compound shown: C[C@H]1[C@H](OC(=O)CCC(=O)O)O[C@@H]2O[C@@]3(C)CC[C@H]4[C@H](C)CC[C@@H]1[C@@]24OO3 [artesunate]
> 100 µM

Data credit: patent US12485116B2
